These measurements were taken from the supplement of paper PMC6555819.

Tested on: RARa homodimer (NR concentration 270 nM)
Experimental Details: PBM binding z-score (relative to random genomic background probes); higher = stronger binding; sequences stand for … in GC…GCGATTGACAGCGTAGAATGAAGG
Value Kind: PBM binding z-score
Please reply with the number alone, leaving off any unit.

// solved cases for PBM binding z-score follow
Sequence Content	PBM binding z-score
CCTACTGGGCCATACAGAGGTCATTGATCATATG	1.8
CGAACTAGGTCACCAGGTCAGTGAAGAGGTTGGA	1.02
CGTACTAGGTCAAAGGACAGTGAAAGGCGACGTA	0.22
TCTAGTTGGTCATGGAGGTCACACACGACGGGTA	2.88
GCTGCTAGGTCAACTGATGGTGAGCTAAAGCTCG	-0.283
CGAACTAGGCCACCAGGACAGTGAAGAGGTTGGA	-0.684

[ask] Request the reported PBM binding z-score associated with GCTGCTAGGTAAGGTTGGTCAGCTAACGGGTACG
[reply] -0.745

[ask] Moving on to the next sequence: ATCGAAAGGTCGTGAGGTGACTATACAGAAAGGC
[reply] 1.01

[ask] Then what about the sequence TTACCAAGGTGAAAGGTCGGTGATGCACGCCTTG ?
[reply] -0.0129

[ask] Please answer likewise for CCTACTGGGGCAAAGGTCATTGATTCCAATGCTC
[reply] 0.341

[ask] Thanks! And TAGAGTAGGTTACGGGGGCATTCAGGGATGAAGA ?
[reply] 1.56

[ask] Again, but for AAATGTAGGTTAGGGTCATTCAGAAAGTAGGGAA
[reply] 1.99

[ask] Now consider CATACTAGGTCAAAGGTCAAAGTCGAGCCAACCA and answer again.
[reply] 1.65

[ask] Then this sequence: CTATGTAGGTGAAGGGGGTCATTCAGTTTGAAAG
[reply] 0.852

* * *

Test system: VDR homodimer (NR concentration 270 nM)
Experimental Details: PBM binding z-score (relative to random genomic background probes); higher = stronger binding; sequences stand for … in GC…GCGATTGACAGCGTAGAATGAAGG
Outcome label depends on PBM binding z-score relative to 2: at/above gives MET, below gives NOT MET.

Sequence Content	Tested Target	Answer Label
CGTCCAAGGGCAATGCTAGGTCAGTGAAAGCATT	VDR homodimer (NR concentration 270 nM)	NOT MET
TCTAGGAGGACACGAAGGTCAGAGCTTTCCAGAG	VDR homodimer (NR concentration 270 nM)	NOT MET
CGAACTAGGTCAAAGGACAGTGACAGGCGACGTA	VDR homodimer (NR concentration 270 nM)	NOT MET
CGAACTAGGTCAACGGACAGTGAAAGGCGACGTA	VDR homodimer (NR concentration 270 nM)	NOT MET
ACTAGTTGGTCAGCTGAGGTCACACTCAATTCGG	VDR homodimer (NR concentration 270 nM)	MET
ACTAGTGGGTCAGCTGAGGTCACACACAATTCGG	VDR homodimer (NR concentration 270 nM)	MET
CGTCAAAGCTCAACTAAGGTAACGTAAAGCACGC	VDR homodimer (NR concentration 270 nM)	NOT MET
CCTTACGGGTCAGGGTTATAGCACGGGTGGTACG	VDR homodimer (NR concentration 270 nM)	NOT MET
ATATGTAGGTTCGGGTCATTCAGAAAGTAGGGAA	VDR homodimer (NR concentration 270 nM)	MET
CAAACTAGGTCAAAGGACAGTGAAAGGCGACGTA	VDR homodimer (NR concentration 270 nM)	NOT MET

Pending sequence:
[ask] Threshold query (PBM binding z-score >= 2) on TCGAGTAGGTTACGGGGGCTTTCAGGGATGAAGA
[reply] NOT MET

* * *

Tested on: PPARg:RXRa DBDmut IVT, anti-RXR (DBD mutation: RXRa K156A/R161A, NR concentration 270 nM, RXRa partner concentration 90 nM)
Experimental Details: PBM binding z-score (relative to random genomic background probes); higher = stronger binding; sequences stand for … in GC…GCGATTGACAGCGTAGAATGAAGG
Think of 4 as a floor: if PBM binding z-score stands on it or above, it is y; beneath it, n.

Sequence Content	Answer Label
CGTCAAAGTTCAAGGCAACGTAACAGAAAGCAGC	n

[ask] Reported PBM binding z-score at or above 4? TCATATAGGTAATCAGGTGAAAGTCCGTAAGTTA
[reply] y

[ask] Another sequence: CGTCCAAGGTCAATGCGAGGTCAGTGAAAGCATT
[reply] n

[ask] And CGTCAAAGTTCACCTAAGGTAACGTAAAGCACGC ?
[reply] n

[ask] Ok, now TCGAGTAGGATACGGGGGCATTCAGGGATGAAGA
[reply] n

[ask] Then this sequence: CTATGTAGGTTAAGGGGGTCATTGAGTTTGAAAG
[reply] y

[ask] Now this one: CGAACTAGGTCACCAGGAGAGTGAAGAGGTTGGA
[reply] y

[ask] Check CCTTCTGGGCCATTCAGAGGTCATTGATCATATG too.
[reply] y

[ask] Proceed to CCGAGTAGGTTACGAGGGGGCACTCAGTGCGAAT
[reply] y

[ask] Also CCGAGTAGGTTACGAGGGCGCATTCAGTGCGAAT ?
[reply] y

[ask] What do you get for ATCTGTAGGTTAGGGTCATTCAGAAAGTAGGGAA ?
[reply] n

[ask] Similarly, ATCTCTAGGTCAAAGTTCAGTGAATCCCGAGGAT ?
[reply] y

[ask] Follow-up item: ATATGTAGGTTAGGGTCATTCAGAAAGTAGGGAA
[reply] y

[ask] Try this sequence next: CAAACTAGGTCACCGGGAGGTCAAAGTCCGCATG
[reply] y

[ask] Next record, please: TCTAGTAGGTTACGGGGGCATTCAGGGATGAAGA
[reply] y

* * *

// reported PBM binding z-score per item
Tested on: RXRa DBDmut IVT, anti-RXR (DBD mutation: RXRa K156A/R161A, NR concentration 90 nM)
Experimental Details: PBM binding z-score (relative to random genomic background probes); higher = stronger binding; sequences stand for … in GC…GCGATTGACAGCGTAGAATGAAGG
Form field (numeric): enter value without unit.

Worked examples follow.
Sequence Content	PBM binding z-score
AGTCAAAGTTCAGCACGAGGTAACGTAAAGCACG	3.52
CAATCTAGGTCACAGAGGTCAAAGTCCGTGCGTA	3.44
CGTCCAAGGTCAGAGAGGTCAGTGTATGCCGAGT	3.28

[ask] Param item = ACTCGGAGGGCAAAGGTCAGAGCTACGCCAGTGA ; retrieve measured PBM binding z-score.
[reply] 1.7

[ask] Again, but for CAACCTAGGTCACCGGAAGGTCAAAGTCCGCATG
[reply] 2.46

* * *

PBM binding z-score for assorted sequences
Test system: RARa homodimer (NR concentration 270 nM)
Experimental Details: PBM binding z-score (relative to random genomic background probes); higher = stronger binding; sequences stand for … in GC…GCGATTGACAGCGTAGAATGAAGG
Returns: the value as a bare number; no unit string appended.

These solved cases illustrate the format of a correct answer.
Sequence Content	Recorded Measurement
ATATGTAGGTTAGCTGGAGTCATTCAGACTAGGC	0.257
CAAAATAGGTCAAGAGGTCAAAGTCCGCTTCCCG	2.71

[ask] Bench note: what PBM binding z-score did CGTCCAACGTCAGCAGGTCAGTGAAAGCGACGTG show?
[reply] -0.438

[ask] How about this sequence: CAAACTAGGTCAAGGTCAAATTCGGTTTGTGCCA
[reply] 2.26

[ask] Another: AATACAGGGTCACTAGGCCCGAGTAGGTACGAAT
[reply] 0.416

[ask] Same read-out for CTATGTAGGTTTAGGGGGTCATTCAGTTTGAAAG ?
[reply] 1.56

* * *

Catalogue of PBM binding z-score values
System: LXRa homodimer (NR concentration 270 nM)
Experimental Details: PBM binding z-score (relative to random genomic background probes); higher = stronger binding; sequences stand for … in GC…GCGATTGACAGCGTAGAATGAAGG
Answer using only a numeral; do not append any unit.

Some entries whose results are on file:
Sequence Content	Recorded Measurement
TTACAAAGGTGAGCTGAGGTCGTTGATCCAACTC	-0.299
ATATGTAGGTTAGGGTCATTCACAAAGTAGGGAA	1.56
TCGAGTAGATTACGGGGGCATTCAGGGATGAAGA	0.702
GCTATTAGGTGAAAGGGCAACCGAATGATTCTCG	-0.0501
CTGAGTAGGTTACGAGGGGGCATTCAGTGCGAAT	2.04
CCTAGTTGGTCAAGGTCCCACACGCTATAGGTAC	0.55
ACTAGGAGGACAAAGGTCAGAGCTACGCCAGTGA	1.5
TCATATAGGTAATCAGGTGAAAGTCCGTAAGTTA	0.314

[ask] Fill blank: measured PBM binding z-score of the sequence CCTAGTGGGTCAGGAGGTCACACACCGGATATGA is ____.
[reply] 1.62

[ask] Next record, please: CCTACTGGGCCATTCAGAGGTCACTGATCATATG
[reply] 4.37

[ask] How about CGGACTAGGTCACCAGGACAGTGAAGAGGTTGGA ?
[reply] -0.177

[ask] // repeat for CGAACTAGGTCACCAGGACAATGAAGAGGTTGGA and report
[reply] 0.00967

[ask] For AATACAGGGTGATCGTAGGCCAGAGTACGCACAG then?
[reply] -0.234

[ask] Same read-out for CAATGTAGGTTAAGGGGGTCATTCAGTTTGAAAG ?
[reply] 3.82

[ask] Continue with TCGAGCAGGTTACGGGGGCATTCAGGGATGAAGA
[reply] 0.7

[ask] Can you handle CTATATAGGTTAAGGGGGTCATTCAGTTTGAAAG next?
[reply] 2.95

[ask] Subsequent entry: AGCTCTAGGTAAAAGTTCAGTGAATCCCGAGGAT
[reply] 0.969

[ask] Now the sequence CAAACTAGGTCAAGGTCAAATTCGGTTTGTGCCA
[reply] 5.04

[ask] Next record, please: CGTCAAAGTTCAAGGTTACGTAACAGAAAGCAGC
[reply] 2.46

[ask] Same lookup for TCTGCTAGGTCAGTTGGGCAGCTAACGAGCTGCC , please.
[reply] -0.629

[ask] And CCGACTAGGTTACGAGGGGGCATTCAGTGCGAAT ?
[reply] 1.82

[ask] And then ATCGAAAGGTCGTGAGGTGAGTACACAGAAAGGC , what is it?
[reply] 0.197

[ask] Can you handle CAGAGTAGGTTACGAGGGGGCATTCAGTGCGAAT next?
[reply] 2.11
